target: JAK1 (Homo sapiens, UniProt P23458)
Sequence (P23458 whole entry): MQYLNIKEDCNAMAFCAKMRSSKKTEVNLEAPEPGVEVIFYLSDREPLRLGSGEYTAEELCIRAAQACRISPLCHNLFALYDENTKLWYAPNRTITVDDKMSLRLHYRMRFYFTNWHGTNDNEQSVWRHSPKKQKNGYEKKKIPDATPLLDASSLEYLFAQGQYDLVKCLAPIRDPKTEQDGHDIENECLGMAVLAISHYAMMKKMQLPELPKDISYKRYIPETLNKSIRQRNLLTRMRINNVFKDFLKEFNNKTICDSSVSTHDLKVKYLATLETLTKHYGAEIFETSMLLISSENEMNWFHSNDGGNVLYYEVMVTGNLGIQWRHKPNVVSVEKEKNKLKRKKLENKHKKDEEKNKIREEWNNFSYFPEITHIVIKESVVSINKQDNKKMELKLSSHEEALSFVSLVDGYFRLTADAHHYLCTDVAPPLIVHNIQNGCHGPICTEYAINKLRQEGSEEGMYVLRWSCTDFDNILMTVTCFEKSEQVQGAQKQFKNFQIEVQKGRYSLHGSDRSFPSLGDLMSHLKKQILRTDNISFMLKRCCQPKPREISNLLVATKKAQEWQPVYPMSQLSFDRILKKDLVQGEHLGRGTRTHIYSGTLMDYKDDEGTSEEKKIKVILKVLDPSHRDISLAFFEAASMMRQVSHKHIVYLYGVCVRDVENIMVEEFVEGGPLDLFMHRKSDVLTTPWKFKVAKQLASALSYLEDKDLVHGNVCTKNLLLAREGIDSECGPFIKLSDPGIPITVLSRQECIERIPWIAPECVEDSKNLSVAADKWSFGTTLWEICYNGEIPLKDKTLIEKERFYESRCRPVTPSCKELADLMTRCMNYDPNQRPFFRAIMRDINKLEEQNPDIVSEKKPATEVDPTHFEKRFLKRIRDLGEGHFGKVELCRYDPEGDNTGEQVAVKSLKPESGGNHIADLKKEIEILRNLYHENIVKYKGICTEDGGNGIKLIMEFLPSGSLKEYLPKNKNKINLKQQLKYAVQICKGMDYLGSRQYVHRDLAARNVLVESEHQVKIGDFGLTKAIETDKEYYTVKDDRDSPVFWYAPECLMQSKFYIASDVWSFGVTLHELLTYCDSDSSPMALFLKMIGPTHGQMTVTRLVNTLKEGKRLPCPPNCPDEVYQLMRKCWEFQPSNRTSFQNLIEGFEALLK
Can you tell me pIC50 for the items I'm about to list?
Scale explanation: pIC50 corresponds to minus log10 of a concentration expressed in moles per litre.

Case Cc1cc(Nc2nc(N[C@@H]3C[C@H]4CC[C@@H](C3)N4S(=O)(=O)N3CC(C#N)C3)nc3cc(Cl)ccc23)n[nH]1 , JAK1 (Homo sapiens, UniProt P23458), pIC50 recorded as 9.46

Case Cc1cc(Nc2nc(N[C@@H]3C[C@H]4CC[C@@H](C3)N4C(=O)c3ccncc3)nc3ccccc23)n[nH]1 , JAK1 (Homo sapiens, UniProt P23458), pIC50 recorded as 8.58

Case Cc1cc(Nc2nc(N[C@@H]3C[C@H]4CCC[C@@H](C3)N4C(=O)c3nccn3C)nc3sccc23)n[nH]1 , JAK1 (Homo sapiens, UniProt P23458), pIC50 recorded as 9.96

###

assay: Balb/C mouse pharmacokinetics (plasma, colon, ileum); format: in vivo; conditions: male, po, Balb/C mice, p.o. 5 mg/kg, colon, read-out: Mean detention time MRT
Threshold 4 h: MRT strictly smaller gives condition met, otherwise condition not met.

Exercise: Does Cc1cc(Nc2nc(N[C@@H]3C[C@H]4CC[C@@H](C3)N4CCC#N)nc3c2cnn3C)n[nH]1 [Embodiment 295] have MRT strictly under 4 h?
Solution: condition met

Exercise: Does Cc1cc(Nc2nc(N[C@@H]3C[C@H]4CC[C@@H](C3)N4CCC#N)nc3cc(Br)ccc23)n[nH]1 [Embodiment 170] have MRT strictly under 4 h?
Solution: condition met

Exercise: Does Cc1cnc(Nc2cc3ncccc3c(N[C@@H]3C[C@H]4CC[C@@H](C3)N4CCC#N)n2)s1 [Embodiment 1] have MRT strictly under 4 h?
Solution: condition met

Exercise: Does Cc1cc(Nc2nc(N[C@@H]3C[C@H]4CCC[C@@H](C3)N4C(=O)c3nccn3C)nc3sccc23)n[nH]1 [Embodiment 263] have MRT strictly under 4 h?
Solution: condition met

Exercise: Does Cc1cc(Nc2nc(N[C@@H]3C[C@H]4CCC[C@@H](C3)N4S(=O)(=O)c3ccccn3)nc3sccc23)n[nH]1 [Embodiment 267] have MRT strictly under 4 h?
Solution: condition not met

Exercise: Does Cc1cc(Nc2nc(N[C@@H]3C[C@H]4CCC[C@@H](C3)N4C(=O)c3ccncc3)nc3sccc23)n[nH]1 [Embodiment 262] have MRT strictly under 4 h?
Solution: condition met

###

Can you tell me pIC50 for the items I'm about to list?
Scale explanation: pIC50 corresponds to minus log10 of a concentration expressed in moles per litre.

Case Cc1cc(Nc2nc(N[C@@H]3C[C@H]4CC[C@@H](C3)N4S(=O)(=O)c3cccnc3)nc3ccccc23)n[nH]1 , JAK1 (Homo sapiens, UniProt P23458), pIC50 recorded as 8.14

Case Cc1cc(Nc2nc(N[C@@H]3C[C@H]4CCC[C@@H](C3)N4C(=O)CN3CCOCC3)nc3ccsc23)n[nH]1 , JAK1 (Homo sapiens, UniProt P23458), pIC50 recorded as 9.57

Case Cc1cc(Nc2nc(N[C@@H]3C[C@H]4CC[C@@H](C3)N4CCC#N)nc3sccc23)n[nH]1 , JAK1 (Homo sapiens, UniProt P23458), pIC50 recorded as 10.10

Case Cc1cc(Nc2nc(N[C@@H]3C[C@H]4CC[C@@H](C3)N4CCC#N)c3cccnc3n2)n[nH]1 , JAK1 (Homo sapiens, UniProt P23458), pIC50 recorded as 8.14

Case Cc1cnc(Nc2nc(N[C@@H]3C[C@H]4CC[C@@H](C3)N4S(=O)(=O)N3CC(C#N)C3)nc3ccccc23)s1 , JAK1 (Homo sapiens, UniProt P23458), pIC50 recorded as 9.10

Case Cc1cc(Nc2nc(N[C@@H]3C[C@H]4CC[C@@H](C3)N4CCC#N)nc3cc(-c4cccnc4)ccc23)n[nH]1 , JAK1 (Homo sapiens, UniProt P23458), pIC50 recorded as 9.36

Case Cc1cc(Nc2nc(N[C@@H]3C[C@H]4CC[C@@H](C3)N4C(=O)CN(C)C)nc3ccccc23)n[nH]1 , JAK1 (Homo sapiens, UniProt P23458), pIC50 recorded as 8.04
